Test system: HEK-293T
Experimental details: Multiplex assay against HEK293T
Format: toxicity, cell-based
Reported conditions: human, 12 h, 1 µM, compound concentration 1 uM
Outcome measure: Population Normal (%)
One number for each entry, in %.

Some molecules with recorded Population Normal (%):
COC(=O)C1=C(C)NC(C)=C(C(=O)OC(C)C)C1c1cccc2nonc12 (stereo not given) = 100
C=CCN1C[C@H](C(=O)N(CCCN(C)C)C(=O)NCC)C[C@@H]2c3cccc4[nH]cc(c34)C[C@H]21 = 91
Cc1ccc(OCC(O)C(C)NC(C)C)c2c1CCC2.Cl (stereo not given) = 94
Cc1cc(C(C#N)c2ccc(Cl)cc2)c(Cl)cc1NC(=O)c1cc(I)cc(I)c1O (stereo not given) = 100

Okay, next one:
Per the record, `Nc1nc(CC(=O)Nc2ccc(CCNC[C@H](O)c3ccccc3)cc2)cs1` has Population Normal (%) of 94

The measured values listed here are drawn from ChEMBL document CHEMBL5724801.
